Some variants, each annotated with its measured self-cleavage.
B1: CPEB3 Ribozyme (parent)
chain: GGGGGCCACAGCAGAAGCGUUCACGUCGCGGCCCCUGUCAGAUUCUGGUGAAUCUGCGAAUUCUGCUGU

Variants of: B1
Test: self-cleavage, relative activity (ratio to wild type); higher = more cleavage; co-transcriptional
Output: the number by itself.

Task: Which self-cleavage value is on record for G30C G41A ?
Output: 0.298

Task: Which self-cleavage value is on record for C18G U20G ?
Output: 0.218

Task: Which self-cleavage value is on record for G1A U46A ?
Output: 0.134

Task: Which self-cleavage value is on record for C35U G58A ?
Output: 0.878

Task: Which self-cleavage value is on record for C32G G65A ?
Output: 0.288

***
Task: Which self-cleavage value is on record for G1A G58A ?
Output: 0.0724

Task: Which self-cleavage value is on record for U21C C39U ?
Output: 0.842

Task: Which self-cleavage value is on record for G2A G56U ?
Output: 0.0991

Task: Which self-cleavage value is on record for U20C C22G ?
Output: 0.214

Task: Which self-cleavage value is on record for U46C U55G ?
Output: 0.768

Source of measurements: the RNAGym collection of RNA variant scans (doi:10.7554/elife.80360)
